All figures here come from ChEMBL document CHEMBL1201862.

- systemUnderTest: Voltage-dependent T-type calcium channel subunit alpha-1H (Homo sapiens);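 note: channel activity triggered by adding a high calcium stimulation buffer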
- Sequence (O95180 whole entry): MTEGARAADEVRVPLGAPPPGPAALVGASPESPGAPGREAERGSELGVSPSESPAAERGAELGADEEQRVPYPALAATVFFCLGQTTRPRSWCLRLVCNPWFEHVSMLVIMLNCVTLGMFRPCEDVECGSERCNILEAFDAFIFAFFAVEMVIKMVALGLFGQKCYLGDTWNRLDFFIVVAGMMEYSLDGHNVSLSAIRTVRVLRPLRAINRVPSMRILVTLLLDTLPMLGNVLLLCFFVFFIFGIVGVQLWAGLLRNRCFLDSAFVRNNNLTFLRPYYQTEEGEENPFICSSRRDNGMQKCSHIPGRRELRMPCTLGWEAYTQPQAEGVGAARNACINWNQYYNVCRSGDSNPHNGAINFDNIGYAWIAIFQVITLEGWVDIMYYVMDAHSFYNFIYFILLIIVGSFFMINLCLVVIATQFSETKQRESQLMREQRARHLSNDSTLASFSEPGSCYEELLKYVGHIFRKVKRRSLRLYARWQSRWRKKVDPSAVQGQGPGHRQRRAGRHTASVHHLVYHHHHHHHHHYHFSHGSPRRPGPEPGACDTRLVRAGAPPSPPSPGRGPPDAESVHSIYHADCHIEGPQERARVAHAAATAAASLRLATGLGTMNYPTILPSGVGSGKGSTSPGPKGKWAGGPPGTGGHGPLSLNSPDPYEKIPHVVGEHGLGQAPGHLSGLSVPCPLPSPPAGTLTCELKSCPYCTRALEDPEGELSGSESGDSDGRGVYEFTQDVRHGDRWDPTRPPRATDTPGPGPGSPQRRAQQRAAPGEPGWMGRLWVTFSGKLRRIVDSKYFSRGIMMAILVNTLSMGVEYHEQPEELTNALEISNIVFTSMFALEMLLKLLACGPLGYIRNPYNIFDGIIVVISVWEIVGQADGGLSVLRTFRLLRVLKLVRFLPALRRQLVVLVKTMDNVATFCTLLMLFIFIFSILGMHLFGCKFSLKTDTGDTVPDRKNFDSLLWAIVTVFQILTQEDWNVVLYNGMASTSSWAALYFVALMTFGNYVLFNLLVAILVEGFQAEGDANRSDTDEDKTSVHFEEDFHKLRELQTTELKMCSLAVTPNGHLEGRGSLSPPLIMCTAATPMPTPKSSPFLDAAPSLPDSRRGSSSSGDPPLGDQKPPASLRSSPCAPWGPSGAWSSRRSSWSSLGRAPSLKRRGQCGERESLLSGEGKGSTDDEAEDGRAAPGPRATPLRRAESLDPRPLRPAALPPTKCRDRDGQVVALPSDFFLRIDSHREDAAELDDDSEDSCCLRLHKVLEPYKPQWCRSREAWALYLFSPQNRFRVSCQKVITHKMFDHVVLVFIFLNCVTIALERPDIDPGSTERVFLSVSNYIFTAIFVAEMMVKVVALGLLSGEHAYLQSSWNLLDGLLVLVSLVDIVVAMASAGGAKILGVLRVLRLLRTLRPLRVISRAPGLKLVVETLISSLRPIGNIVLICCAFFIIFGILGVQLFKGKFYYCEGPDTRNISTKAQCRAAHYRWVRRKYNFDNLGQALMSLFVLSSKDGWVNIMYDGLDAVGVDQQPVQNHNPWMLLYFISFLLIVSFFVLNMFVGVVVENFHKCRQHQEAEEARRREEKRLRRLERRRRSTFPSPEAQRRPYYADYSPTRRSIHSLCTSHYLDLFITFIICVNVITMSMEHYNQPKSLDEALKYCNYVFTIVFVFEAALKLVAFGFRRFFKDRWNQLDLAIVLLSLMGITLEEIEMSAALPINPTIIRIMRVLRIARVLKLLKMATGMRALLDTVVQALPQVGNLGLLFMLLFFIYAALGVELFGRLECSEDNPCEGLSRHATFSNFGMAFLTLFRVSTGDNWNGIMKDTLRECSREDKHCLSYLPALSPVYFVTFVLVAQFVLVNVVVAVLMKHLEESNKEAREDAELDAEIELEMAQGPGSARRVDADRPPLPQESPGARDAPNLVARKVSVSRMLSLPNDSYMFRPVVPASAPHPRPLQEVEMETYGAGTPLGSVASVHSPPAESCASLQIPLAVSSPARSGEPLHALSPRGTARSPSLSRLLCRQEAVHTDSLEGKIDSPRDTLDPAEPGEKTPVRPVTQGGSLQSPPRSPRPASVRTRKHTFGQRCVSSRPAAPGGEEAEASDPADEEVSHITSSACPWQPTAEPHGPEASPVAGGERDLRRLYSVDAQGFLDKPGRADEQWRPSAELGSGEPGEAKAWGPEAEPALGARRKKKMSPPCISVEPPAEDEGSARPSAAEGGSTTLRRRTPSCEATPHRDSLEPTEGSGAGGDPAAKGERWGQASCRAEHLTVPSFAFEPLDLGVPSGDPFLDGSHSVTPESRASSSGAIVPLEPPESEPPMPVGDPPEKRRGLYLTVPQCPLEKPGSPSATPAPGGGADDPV
- Assay type: functional
The source made the active and inactive calls.
observationType: EC50

[[record]]
givensmiles = "CC(C)(C)n1nnnc1CN1CCN(C(c2ccccc2)c2ccccc2)CC1"
measuredvalue = "6.42 µM (active)"

[[record]]
givensmiles = "O=C(CCc1ccccc1)N1CCN(c2ccc(Cl)cc2)CC1"
measuredvalue = "4.01 µM (active)"

[[record]]
givensmiles = "COc1ccc(S(=O)(=O)N(Cc2ccccc2)Cc2nc(-c3ccccc3)no2)cc1"
measuredvalue = "6.27 µM (active)"

[[record]]
givensmiles = "O=C(CC(c1ccccc1)c1ccccc1)Nc1ccc2c(c1)OCCO2"
measuredvalue = "33.6 µM (active)"

[[record]]
givensmiles = "Cc1ccc(-c2nc(CS(=O)(=O)CC(=O)N3CCc4ccccc4C3)c(C)o2)cc1"
measuredvalue = "2.21 µM (active)"

[[record]]
givensmiles = "Cc1nn(Cc2ccccc2)c(Cl)c1C(=O)OCc1nnc(-c2ccccc2)o1"
measuredvalue = "30.4 µM (active)"

[[record]]
givensmiles = "Cc1ccc(N2C(=O)c3cccc4c(N5CCN(C)CC5)ccc(c34)C2=O)c2cccnc12"
measuredvalue = "0.658 µM (active)"

[[record]]
givensmiles = "CCN(CC)c1ccc(/C=C(/C#N)c2nc3cc(C)ccc3[nH]2)c(OC(C)C)c1"
measuredvalue = "1.62 µM (active)"

